# Test system: HPPD polypeptides
# protocol: coupled HPPD activity assay: turnover and residual turnover in crude extracts
# Assay type: biochemical, Pseudomonas fluorescens
# condition.description: absence of Cmpd. 1; high substrate concentration; kinetic changes in absorbance (OD) at 320 nm, 30 min
readout.label: Turnover

Q. Return reported Turnover; argument: 39 (protein, mutant HPPD polypeptide) MADLYENPMGLMGFEFIEFASPTPGTLEPIFEIMGFTKVATHRSKNVHLYRQGEINLILNNEPNSIASYFAAEHGPSVCGMAFRVKDSQKAYNRALELGAQPIHIDTGPMELNLPAIKGIGGAPLYLIDRFGEGSSIYDIDFVYLEGVERNPVGAGLKVIDHLTHNVYRGRMVYWANFYEKLFNFREARYFDIKGEYTGLTSKAMSAPDGMIRIPLNEESSKGAGQIEEFLMQFNGEGIQHVAFLTDDLVKTWDALKKIGMRFMTAPGDEYYEMLEGRLPDHGEPVDQLQARGILLDGSSVEGDKRLLLQIFSETLMGPVFFEFIQRKGDDGFGPHSFKVLFESVERDQVRRGVLTAD
A. 0.244

Q. Return reported Turnover; argument: 16 (protein, mutant HPPD polypeptide) MADLYENPMGLMGFEFIEFASPTPGTLEPIFEIMGFTKVATHRSKNVHLYRQGEINLILNNEPNSIASYFAAEHGPSVCGMAFRVKDSQKAYNRALELGAQPIHIDTGPMELNLPAIKGIGGAPLYLIDRFGEGSSIYDIDFVYLEGVERNPVGAGLKVIDHLTHNVYRGRMVYWANFYEKLFNFREARYFDIKGEYTGLTSKAMSAPDGMIRIPLNEESSKGAGQIEEFLMQFNGEGIQHVAFLTDDLVKTWDALKKIGMRFMTAPSDNYYEMLEGRLPDHGEPVDQLQARGILLDGSSVEGDKRLLLQIFSETLMGPVFFEFIQRKGDDGFGPDSFKVLFESVERDQVRRGVLTAD
A. 0.181
